Cited source: paper PMC7826789

Test system: TNK2;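 note: KINOMEscan scanMAX binding as percent activity remaining versus control; lower means stronger binding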
experimental.setup: Compound Concentration (nM):1000
readout.name: Percent Control (%)
The figure you give is taken to be in %; do not add the unit.

Examples with their reported Percent Control follow.
Query block: Check TNK2 data and give Percent Control for O=C1Nc2ccc(C(=O)c3ccco3)cc2C1=Cc1cc(Cl)c(O)c(Cl)c1 [GW406108X] .
Result block: 100

Query block: Check TNK2 data and give Percent Control for Cl.O=C(Nc1ccc(Oc2ccc3[nH]c(NC(=O)c4ccccc4)nc3c2)cc1)Nc1cc(C(F)(F)F)ccc1F [GW709042A] .
Result block: 100

---
Query block: Check TNK2 data and give Percent Control for COc1cc(N2CCN(C(C)C)CC2)ccc1Nc1nc(Nc2ccc(F)cc2C(=O)NC[C@@H](O)CO)c2cc[nH]c2n1 [GSK1392956A] .
Result block: 67

Query block: Check TNK2 data and give Percent Control for NS(=O)(=O)c1ccc(N/N=C2\C(=O)Nc3ccc(-c4cnco4)cc32)cc1 [GW276655] .
Result block: 66
